subjectOfTest: mFAP2b
Construct: de novo designed beta-barrel; large-scale purification and SEC
assaySummary: Fluorescence titration of DFHBI or DFHBI-1T into 20.0 nM purified protein in high-salt Tev cleavage buffer (25.0 mM Tris, 100 mM NaCl, pH 8.00), excitation 468 nm and emission 530 nm, means of eight technical replicates fit to a single-binding site isotherm.
conditionSet: n = 8
parameter: Kd (µM)
Give bare numbers, in µM.

• CC1=N/C(=C\c2cc(F)c(O)c(F)c2)C(=O)N1C = 1.8

Now look at this one.
Ask: Kd lookup needed for CC1=N/C(=C\c2cc(F)c(O)c(F)c2)C(=O)N1CC(F)(F)F , thanks.
Result: 11

The origin of these recorded values is paper PMC7870846.
